The measurements presented in this section are drawn from ChEMBL document CHEMBL1131756.

- Tested on: AF2 neuropeptide receptor
- Method summary: In vitro antihelminthic activity using AF2 Neuropeptide receptor binding assay in Caenorhabditis elegans
Reported property: IC50 (µM)

Some entries whose results are on file:
{"columns": ["Chem smiles", "Reported measurement"],
 "data": [
  ["N=c1sc(-c2ccc(O)cc2)nn1-c1c(Cl)cc(Cl)cc1Cl", 4],
  ["N=c1sc(-c2ccccc2F)nn1-c1c(Cl)cc(C(F)(F)F)cc1Cl", 0.15],
  ["CCOC(=O)Oc1ccc(-c2nn(-c3c(Cl)cc(Cl)cc3Cl)c(=N)s2)cc1", 4]
]}

I = N=c1sc(-c2cc(C(F)(F)F)ccc2F)nn1-c1c(Cl)cc(C(F)(F)F)cc1Cl
II = CC(=O)Nc1ccc(-c2nn(-c3c(Cl)cc(Cl)cc3Cl)c(=N)s2)cc1
Ask: For I and II , which recorded IC50 is lower? State the label of the item chosen.
Reply: I
(I: 0.063 µM, II: 70 µM)

* * *

- Tested on: AF2 neuropeptide receptor
- Method summary: In vitro antihelminthic activity using AF2 Neuropeptide receptor binding assay in Caenorhabditis elegans
pIC50: −log10 of the molar value.
Reported property: pIC50

Some entries whose results are on file:
{"columns": ["Chem smiles", "Tested on", "Reported measurement"],
 "data": [
  ["N=c1sc(-c2ccc(OC(F)(F)F)cc2)nn1-c1c(Cl)cc(Cl)cc1Cl", "AF2 neuropeptide receptor", 5.30],
  ["N=c1sc(-c2cccc(F)c2)nn1-c1c(Cl)cc(Cl)cc1Cl", "AF2 neuropeptide receptor", 5.10],
  ["COc1ccc(OC)c(-c2nn(-c3c(Cl)cc(C(F)(F)F)cc3Cl)c(=N)s2)c1", "AF2 neuropeptide receptor", 5.40]
]}

P = N#Cc1ccc(-c2nn(-c3c(Cl)cc(Cl)cc3Cl)c(=N)s2)cc1
Q = N=c1sc(-c2ccccn2)nn1-c1c(Cl)cc(C(F)(F)F)cc1Cl
Ask: Hi team, can someone confirm which has the larger pIC50: P or Q ? Thanks. State the label of the item chosen.
Reply: Q

* * *

- Tested on: AF2 neuropeptide receptor
- Method summary: In vitro antihelminthic activity using AF2 Neuropeptide receptor binding assay in Caenorhabditis elegans
Reported property: IC50 (nM)

{"columns": ["Chem smiles", "Tested on", "IC50 / nM"],
 "data": [
  ["N=c1sc(-c2ncc(C(F)(F)F)cc2Cl)nn1-c1c(Cl)cc(C(F)(F)F)cc1Cl", "AF2 neuropeptide receptor", 2400]
]}

P = N=c1sc(-c2ccccc2)nn1-c1c(Cl)cc(Cl)cc1Cl
Q = N=c1sc(-c2ccnc([N+](=O)[O-])c2)nn1-c1c(Cl)cc(C(F)(F)F)cc1Cl
R = N=c1sc(-c2cc([N+](=O)[O-])ccc2F)nn1-c1c(Cl)cc(C(F)(F)F)cc1Cl
S = Cc1cccnc1-c1nn(-c2c(Cl)cc(C(F)(F)F)cc2Cl)c(=N)s1
Ask: Arrange the 4 compounds by rising IC50, starting with the smallest. In plain terms: list the labels in the order you were asked to.
Reply: Q, R, P, S

* * *

- Tested on: AF2 neuropeptide receptor
- Method summary: In vitro antihelminthic activity using AF2 Neuropeptide receptor binding assay in Caenorhabditis elegans
Reported property: IC50 (nM)

I = CC(C)(C)c1cc(-c2nn(-c3c(Cl)cc(C(F)(F)F)cc3Cl)c(=N)s2)ccn1
II = N#Cc1ccnc(-c2nn(-c3c(Cl)cc(C(F)(F)F)cc3Cl)c(=N)s2)c1
III = N=c1sc(-c2ccc([N+](=O)[O-])cc2)nn1-c1c(Cl)cc(Cl)cc1Cl
Ask: Please rank the 3 items above; order by IC50, the highest number leading. In plain terms: list the labels in the order you were asked to.
Reply: III, I, II
(III: 5000 nM, I: 37 nM, II: 10 nM)

* * *

- Tested on: AF2 neuropeptide receptor
- Method summary: In vitro antihelminthic activity using AF2 Neuropeptide receptor binding assay in Caenorhabditis elegans
Reported property: IC50 (µM)

Some entries whose results are on file:
{"columns": ["Chem smiles", "Uom", "Reported measurement"],
 "data": [
  ["N=c1sc(-c2ccc(C(F)(F)F)cc2F)nn1-c1c(Cl)cc(Cl)cc1Cl", "µM", 1],
  ["N=c1sc(-c2cccc(Br)n2)nn1-c1c(Cl)cc(C(F)(F)F)cc1Cl", "µM", 20]
]}

a = N=c1sc(-c2cccnc2)nn1-c1c(Cl)cc(Cl)cc1Cl
b = N=c1sc(-c2ccc(Cl)cc2)nn1-c1c(Cl)cc(Cl)cc1Cl
Ask: For a and b , which recorded IC50 is lower? State the label of the item chosen.
Reply: b

1 = N=c1sc(-c2cc(F)ccc2F)nn1-c1c(Cl)cc(C(F)(F)F)cc1Cl
2 = COC(=O)c1ccc(-c2nn(-c3c(Cl)cc(Cl)cc3Cl)c(=N)s2)cc1
Ask: Hi team, can someone confirm which has the larger IC50: 1 or 2 ? Thanks. State the label of the item chosen.
Reply: 2

A = N=c1sc(-c2ccccn2)nn1-c1c(Cl)cc(Cl)cc1Cl
B = N=c1sc(-c2cnccn2)nn1-c1c(Cl)cc(C(F)(F)F)cc1Cl
Ask: For A and B , which recorded IC50 is lower? State the label of the item chosen.
Reply: B

a = N=c1sc(-c2ccc(Br)cc2)nn1-c1c(Cl)cc(Cl)cc1Cl
b = N=c1sc(-c2ccccc2OC(F)(F)F)nn1-c1c(Cl)cc(C(F)(F)F)cc1Cl
Ask: Hi team, can someone confirm which has the larger IC50: a or b ? Thanks. State the label of the item chosen.
Reply: b

* * *

- Tested on: AF2 neuropeptide receptor
- Method summary: In vitro antihelminthic activity using AF2 Neuropeptide receptor binding assay in Caenorhabditis elegans
pIC50: −log10 of the molar value.
Reported property: pIC50

Some entries whose results are on file:
{"columns": ["Chem smiles", "Reported measurement"],
 "data": [
  ["N=c1sc(-c2ccccc2F)nn1-c1c(Cl)cc(Cl)cc1Cl", 6.30],
  ["COC(=O)c1ccnc(-c2nn(-c3c(Cl)cc(C(F)(F)F)cc3Cl)c(=N)s2)c1", 6.89],
  ["N=c1sc(-c2ccccn2)nn1-c1c(Cl)cc(Cl)cc1C(F)(F)F", 6.85],
  ["Cc1ccccc1-c1nn(-c2c(Cl)cc(Cl)cc2Cl)c(=N)s1", 5.40],
  ["N=c1sc(-c2cccnn2)nn1-c1c(Cl)cc(C(F)(F)F)cc1Cl", 4.46],
  ["N=c1sc(-c2cncc(C(F)(F)F)c2)nn1-c1c(Cl)cc(C(F)(F)F)cc1Cl", 7.68],
  ["N=c1sc(-c2cc(Cl)ccn2)nn1-c1c(Cl)cc(C(F)(F)F)cc1Cl", 6.80],
  ["N=c1sc(-c2cccc(C(F)(F)F)c2F)nn1-c1c(Cl)cc(Cl)cc1Cl", 5.40],
  ["N=c1sc(-c2ccncn2)nn1-c1c(Cl)cc(C(F)(F)F)cc1Cl", 5.59],
  ["N=c1sc(-c2cc(CN)ccn2)nn1-c1c(Cl)cc(C(F)(F)F)cc1Cl", 4.33]
]}

I = N=c1sc(-c2cc(C(F)(F)F)ccc2F)nn1-c1c(Cl)cc(Cl)cc1Cl
II = N=c1sc(-c2ccccc2SC(F)(F)F)nn1-c1c(Cl)cc(C(F)(F)F)cc1Cl
Ask: For I and II , which recorded pIC50 is lower? State the label of the item chosen.
Reply: II
(II: 4.25, I: 7.00)

I = N=c1sc(-c2ccc(C(F)(F)F)cc2)nn1-c1c(Cl)cc(Cl)cc1Cl
II = COc1ccc(-c2nn(-c3c(Cl)cc(Cl)cc3Cl)c(=N)s2)cc1
III = N=c1sc(-c2cc(Br)ccc2F)nn1-c1c(Cl)cc(C(F)(F)F)cc1Cl
IV = Cc1ccc(-c2nn(-c3c(Cl)cc(Cl)cc3Cl)c(=N)s2)cc1
Ask: Arrange the 4 compounds by rising pIC50, starting with the smallest. In plain terms: list the labels in the order you were asked to.
Reply: II, I, IV, III
